target or system: T1, His-tagged PCSK9Δhelix (human, UniProt Q8NBP7 31-152; Q8NBP7 168-692)
T1 construct: Construct M1-Q692 with engineered TEV site, cut by TEV protease; new N-terminus of the catalytic domain is S-A168; also called His-PCSK9Δhelix
T1 sequence (Q8NBP7 31-152, stated change not applied, chain 1 of 2): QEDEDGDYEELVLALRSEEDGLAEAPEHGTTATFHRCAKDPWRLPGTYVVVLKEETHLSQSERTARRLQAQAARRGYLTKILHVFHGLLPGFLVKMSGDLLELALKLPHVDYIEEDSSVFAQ
T1 sequence (Q8NBP7 other isoform, or with tags, fused parts or gaps mutant, chain 2 of 2): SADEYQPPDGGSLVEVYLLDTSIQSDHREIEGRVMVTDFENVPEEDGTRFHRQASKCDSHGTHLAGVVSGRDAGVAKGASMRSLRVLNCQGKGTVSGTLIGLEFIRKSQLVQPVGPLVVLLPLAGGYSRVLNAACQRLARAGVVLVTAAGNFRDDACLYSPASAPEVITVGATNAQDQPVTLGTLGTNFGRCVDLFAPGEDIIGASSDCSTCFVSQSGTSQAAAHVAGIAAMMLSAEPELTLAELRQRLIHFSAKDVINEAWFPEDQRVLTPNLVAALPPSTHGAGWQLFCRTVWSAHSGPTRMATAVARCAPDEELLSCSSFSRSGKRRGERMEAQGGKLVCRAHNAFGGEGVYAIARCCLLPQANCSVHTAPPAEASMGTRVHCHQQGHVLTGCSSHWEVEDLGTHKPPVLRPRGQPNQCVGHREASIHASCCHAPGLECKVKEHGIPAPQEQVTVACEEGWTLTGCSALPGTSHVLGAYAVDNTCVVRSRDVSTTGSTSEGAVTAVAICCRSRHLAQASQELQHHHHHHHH
method summary: TR-FRET competition; His-PCSK9Δhelix, competitor Ab20
Square brackets hold non-standard residues; d marks the D form. Ends that are not written are not given here. * marks the point of attachment. hArg = N=C(N)NCCCC[C@H](N)C(=O)O; Pentanoyl = CCCCC(=O)*
measured quantity: log10(IC50) (log10 of the value in µM)
Would you kindly interpret these values as log10 of IC50 expressed in µM?

Solved cases below.
Task: Need log10(IC50), item WNLVRIGLTR (also: further groups not given here, Structure printed only as a drawing) [Compound 163]
Result: 1.57

Task: Repeat with WNLVRIGLLR (also: further groups not given here, Structure printed only as a drawing) [Compound 131]
Result: 0.83

Task: Repeat with WNLV[hArg]IGLLR (also: end groups and other groups only in drawing, Structure printed only as a drawing) [Compound 196]
Result: 0.15

Task: Repeat with Pentanoyl-WNLVRIGLTR [Compound 176]
Result: 1.26

Task: Repeat with WNLVRIGTLR (also: further groups not given here, Structure printed only as a drawing) [Compound 183]
Result: 0.40

Others:
Task: Need log10(IC50), item WNLV[hArg]IGLLR (also: further groups not given here, Structure printed only as a drawing) [Compound 212]
Result: 0.20

Sourced from patent US20200283478A1
